target: human GR (Homo sapiens, UniProt P04150); experiment: Trans-Activation Modulation of Glucocorticoid Receptor (GRAMMER), MMTV-LUC reporter, agonist mode; format: cell-based; parameters: endogenous in cells; settings: A549 cells; inflection point; read-out: Transactivation A549 Cells GRAMMER IP
Sequence (P04150 whole entry): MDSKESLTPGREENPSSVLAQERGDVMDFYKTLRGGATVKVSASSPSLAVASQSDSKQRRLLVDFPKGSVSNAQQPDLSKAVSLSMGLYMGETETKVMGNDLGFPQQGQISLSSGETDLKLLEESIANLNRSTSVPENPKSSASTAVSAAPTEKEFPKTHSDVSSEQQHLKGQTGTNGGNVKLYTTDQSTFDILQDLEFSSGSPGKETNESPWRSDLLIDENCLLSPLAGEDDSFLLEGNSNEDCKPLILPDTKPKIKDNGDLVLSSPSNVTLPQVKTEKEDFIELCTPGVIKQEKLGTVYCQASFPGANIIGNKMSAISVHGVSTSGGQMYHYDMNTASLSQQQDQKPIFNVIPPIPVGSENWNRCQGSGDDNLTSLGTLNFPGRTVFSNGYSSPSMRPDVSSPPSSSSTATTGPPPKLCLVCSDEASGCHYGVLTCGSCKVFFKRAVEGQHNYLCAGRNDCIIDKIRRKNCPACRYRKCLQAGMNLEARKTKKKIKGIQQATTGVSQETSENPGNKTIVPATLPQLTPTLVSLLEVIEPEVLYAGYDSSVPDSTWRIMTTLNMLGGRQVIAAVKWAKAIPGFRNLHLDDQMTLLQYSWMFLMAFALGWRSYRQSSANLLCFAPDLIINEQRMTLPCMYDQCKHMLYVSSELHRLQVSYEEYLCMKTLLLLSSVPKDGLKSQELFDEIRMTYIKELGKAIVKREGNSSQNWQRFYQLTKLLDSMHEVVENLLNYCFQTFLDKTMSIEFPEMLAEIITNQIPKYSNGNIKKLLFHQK
pEC50: −log10 of the molar value.

COMPOUND	TESTED_ON	pEC50
C[C@]12Cc3cnn(-c4ccc(F)cc4)c3C=C1CC[C@@H]2CN(CCO)S(=O)(=O)c1ccccc1C#N [Example 78]	human GR (Homo sapiens, UniProt P04150)	6.19
CCCS(=O)(=O)N(CCc1ccccn1)C[C@H]1CCC2=Cc3c(cnn3-c3ccc(F)cc3)C[C@@]21C [Example 151]	human GR (Homo sapiens, UniProt P04150)	6.38
C[C@]12Cc3cnn(-c4ccc(F)cc4)c3C=C1CC[C@@H]2CN(CCc1ccccc1O)S(=O)(=O)c1ccccc1F [Example 116]	human GR (Homo sapiens, UniProt P04150)	6.17
COC(=O)c1sccc1S(=O)(=O)N(CC#N)C[C@H]1CCC2=Cc3c(cnn3-c3ccc(F)cc3)C[C@@]21C [Example 34]	human GR (Homo sapiens, UniProt P04150)	6.13
C[C@]12Cc3cnn(-c4ccc(F)cc4)c3C=C1CC[C@@H]2CN(CC(OS(=O)(=O)CC(F)(F)F)C(F)F)S(=O)(=O)CC(F)(F)F (stereo partly shown) [Example 134]	human GR (Homo sapiens, UniProt P04150)	6.67
C[C@]12Cc3cnn(-c4ccc(F)cc4)c3C=C1CC[C@@H]2CN(CCc1ccccc1F)S(=O)(=O)Cc1ccccc1Cl [Example 107]	human GR (Homo sapiens, UniProt P04150)	6.40
C[C@]12Cc3cnn(-c4ccc(F)cc4)c3C=C1CC[C@@H]2CN(CC1CC1)S(=O)(=O)c1cc(C(F)(F)F)ccc1Cl [Example 5]	human GR (Homo sapiens, UniProt P04150)	6.38
